System: 786-0 renal
MEASUREMENT DESCRIPTION: NCI tumour cell line growth inhibition, 48 h
RESULT TYPE: TGI

>>> value_observed("O=[N+]([O-])c1cccc2ccc(N/N=C/c3ccccc3O)nc12")
"> 100 µM"
>>> value_observed("C[C@H]1C(=O)O[C@@H]2CCN3CC=C(COC(=O)[C@](C)(O)[C@@]1(C)O)[C@H]23")
"> 100 µM"
>>> value_observed("Cc1cc2c(cc1C(=O)c1ccc(N)cc1)OCO2")
"> 100 µM"

## Input Lab request: please report TGI under test system 786-0 renal for CN(C)c1ccc(N=Nc2ccccn2)c(O)c1
## Output 15.9 µM

## Input Lab request: please report TGI under test system 786-0 renal for CN1C(=O)C2CCCC(=O)N2c2cccnc21 (stereo unspecified)
## Output > 100 µM

## Input Lab request: please report TGI under test system 786-0 renal for CC(C(=O)O)c1cccc(Oc2ccccc2)c1 (stereo unspecified)
## Output > 100 µM

## Input Lab request: please report TGI under test system 786-0 renal for FC(F)(F)c1ccc2c(c1)nc(-c1ccc(Cl)cc1)n2CC1CCCN2CCCCC12 (stereo unspecified)
## Output 27 µM

* * *

Test system: RXF 393 renal
MEASUREMENT DESCRIPTION: NCI tumour cell line growth inhibition, 48 h
RESULT TYPE: TGI (µM)
Report as a plain number; the unit µM is understood.

Consider the worked cases shown below.
>>> value_observed("COC(C)(C)OCCN1CCN(CCN2C3=C(C=C(C(C)=O)C3)Sc3ccccc32)CC1")
42.2
>>> value_observed("CC(=O)N1CCC(=O)/C(=C/c2ccccc2)C1")
67.6

## Input Could you share which TGI value was measured for O=C1CCC(=O)c2c1c(O)c1ccncc1c2O ?
## Output 35.6

## Input Could you share which TGI value was measured for O=C(Nc1ccc([N+](=O)[O-])cc1[N+](=O)[O-])C(=O)C(C(=O)c1ccc2ccccc2c1)C1OC(=O)c2ccccc21 (stereo unspecified) ?
## Output 27.3

## Input Could you share which TGI value was measured for O=C(CSc1c2ccccc2nc2ccccc12)Nc1ccccc1-c1ccccc1NC(=O)CSc1c2ccccc2nc2ccccc12 ?
## Output 52

* * *

Attribute: TGI
Tested on: NCI-H460 lung
MEASUREMENT DESCRIPTION: NCI tumour cell line growth inhibition, 48 h

Consider the worked cases shown below.
>>> value_observed("COC(=O)C1=C(O)c2ccc(Cl)cc2S(=O)(=O)N1C")
"> 100 µM"
>>> value_observed("O=C(NNC(=O)c1ccccc1O)c1cccc(Br)c1")
"> 100 µM"
>>> value_observed("C=CCN1CCC(O)(c2cc(C(=O)OCC)[nH]c2-c2cc(C)no2)C1 (stereo unspecified)")
"> 100 µM"
>>> value_observed("Nc1n[nH]c(=O)c2c1c(I)cn2C1OC(CO)C(O)C1O (stereo unspecified)")
"14.1 µM"
>>> value_observed("CCCC(=O)N1CCN(c2ccc3c(c2)OC(C)O3)CC1 (stereo unspecified)")
"> 100 µM"

In the following, a different compound is considered.
## Input Could you share which TGI value was measured for CC1CCN(C(=O)OCc2nc3nc(Cl)nc(N4CCOCC4)c3[nH]2)CC1 ?
## Output 2.99 µM

Hello, the source for this data is PubChem BioAssay (NCI), in case you need it.
